Target: β5c (chymotrypsin-like activity) (Homo sapiens, UniProt P20618+P28074)
Construct: protease activity associated with the proteasome complex in cultured cells; endogenous in cells; host or cells: Ramos cells
Assay: Cell-Based Proteasome subunit activity/selectivity assay, β5c, substrate (WLA)2Rh110
Details: Ramos cells; substrate (WLA)2Rh110 (β5c); highest concentration tested 20 μM; read-out: Ic50:ramos:rh110-(wla)2
measurementKind: IC50

Worked examples follow.
CCc1ccc(C(C#N)NC(=O)c2cn(CCNC(=O)c3cc(Cl)ccc3Cl)nn2)cc1 (stereo not shown) | ≥ 20 µM
COc1ccc(C(=O)NCCn2cc(C(=O)NC(C#N)c3ccc(C)cc3)nn2)c(OC)c1OC (stereo not shown) | ≥ 20 µM
CCc1ccc(C(C#N)NC(=O)c2nc(CCNC(=O)c3ccc(OC)c(OC)c3OC)n[nH]2)cc1 (stereo not shown) | ≥ 20 µM
CCc1ccc(C(C#N)NC(=O)c2nc(CCNC(=O)c3ccc(C(F)(F)F)cc3OC)n[nH]2)cc1 (stereo not shown) | ≥ 20 µM

## Task Missing value: IC50, β5c (chymotrypsin-like activity) (Homo sapiens, UniProt P20618+P28074), entry COc1cc(C(F)(F)F)ccc1C(=O)NCCn1cc(C(=O)NC(C#N)c2ccc(C(F)(F)F)cc2)nn1 (stereo not shown) . Fill in?
## Result ≥ 20 µM

## Task What would you report for CCc1ccc(C(C#N)NC(=O)c2cn(CCNC(=O)c3ccc(C(F)(F)F)cc3OC)cn2)cc1 (stereo not shown) ?
## Result ≥ 20 µM

## Task What would you report for COc1ccc(C(=O)NCCn2cc(C(=O)N[C@@H](Cc3ccccc3)C(=O)C(=O)NCc3ccccc3)nn2)c(OC)c1OC ?
## Result 8.6 µM

## Task What would you report for COc1ccc(C(C#N)NC(=O)c2cn(CCNC(=O)c3ccc(OC)c(OC)c3OC)nn2)cc1 (stereo not shown) ?
## Result ≥ 20 µM

## Task What would you report for COc1ccc(C(=O)NCCn2cc(C(=O)NC(C#N)c3ccc4ccccc4c3)nn2)c(OC)c1OC (stereo not shown) ?
## Result 12.5 µM

## Task What would you report for CCc1ccc(C(C#N)NC(=O)c2cn(CCNC(=O)c3ccc(Cl)cn3)nn2)cc1 (stereo not shown) ?
## Result ≥ 20 µM

## Task What would you report for COc1ccc(C(=O)NCCn2cc(C(=O)NCc3ccc(Cl)cc3)nn2)c(OC)c1OC ?
## Result ≥ 20 µM

## Task What would you report for CCc1ccc(C(C#N)NC(=O)c2cn(CCNC(=O)c3cc(S(C)(=O)=O)ccc3OC)nn2)cc1 (stereo not shown) ?
## Result ≥ 20 µM

## Task What would you report for CCCc1ccc(C(C#N)NC(=O)c2cn(CCNC(=O)c3ccc(OC)c(OC)c3OC)nn2)cc1 (stereo not shown) ?
## Result 8.31 µM

====

Target: β 5i (chymotrypsin-like activity) (Homo sapiens, UniProt P20618+P28062)
Construct: protease activity associated with the proteasome complex in cultured cells; endogenous in cells
Assay: Cell-Based Proteasome subunit activity/selectivity assay, β5i, substrate (ANW)2Rh110
Details: Ramos cells; substrate (ANW)2Rh110 (β5i); highest concentration tested 20 μM; read-out: Ic50:ramos:ac-(anw)2-r110
measurementKind: pIC50
Keep in mind that pIC50 stands for -log10 of concentration in molar terms.

Worked examples follow.
COc1ccc(C(=O)NCCn2cc(C(=O)NC(C#N)c3ccc4sccc4c3)nn2)c(OC)c1OC (centres unmarked) [Example 48] | 6.70
CCc1ccc(C(C#N)NC(=O)c2cn(CCNC(=O)c3ccc(C(F)(F)F)cc3OC)cn2)cc1 (centres unmarked) [Example 92] | 6.00
CCc1ccc(C(C#N)NC(=O)c2cn(CCNC(=O)c3ncccc3OC)nn2)cc1 (centres unmarked) [Example 17] | 5.00
COc1cccc(C(C#N)NC(=O)c2cn(CCNC(=O)c3ccc(OC)c(OC)c3OC)nn2)c1 (centres unmarked) [Example 52] | 5.57
CCc1ccc(C(C#N)NC(=O)c2cn(CCNC(=O)c3ccc(OC)nc3OC)nn2)cc1 (centres unmarked) [Example 35] | 6.31
COc1ccc(C(=O)NCCn2cc(C(=O)NC(C#N)c3ccc(C(F)(F)F)cc3)nn2)c(OC)c1OC (centres unmarked) [Example 60] | 6.21
CCc1ccc(C(C#N)NC(=O)c2cn(CCN3Cc4cc(OC)ccc4C3=O)nn2)cc1 (centres unmarked) [Example 47] | 5.83

Alright, here's another molecule for you.
## Task Missing value: pIC50, β 5i (chymotrypsin-like activity) (Homo sapiens, UniProt P20618+P28062), entry COc1ccc(C(=O)NCCn2cc(C(=O)NC(C#N)c3cccc4ccccc34)nn2)c(OC)c1OC (centres unmarked) [Example 57] . Fill in?
## Result 5.19

====

// reported pIC50 for each item listed
Target: β 1c (caspase-like) (Homo sapiens, UniProt P28072+Q99436)
Construct: protease activity associated with the proteasome complex in cultured cells; endogenous in cells; host or cells: Ramos cells
Assay: Cell-Based Proteasome subunit activity/selectivity assay, β1c, substrate (LLE)2Rh110
Settings: Ramos cells; substrate (LLE)2Rh110 (β1c); highest concentration tested 20 μM; read-out: Ic50:ramos:rh110-(lle)2
pIC50: −log10 of the molar value.

COc1ccc(C(C#N)NC(=O)c2cn(CCNC(=O)c3ccc(OC)c(OC)c3OC)nn2)cc1 (centres unmarked) [Example 8] | ≤ 4.70

## Task Look at this molecule and give its reported pIC50. CCc1ccc(C(C#N)NC(=O)c2cn(CCNC(=O)c3cccc4c3OCCO4)nn2)cc1 (centres unmarked) [Example 18]
## Result ≤ 4.70

## Task What would you report for COc1ccc(C(=O)NCCn2cc(C(=O)NC(C#N)c3ccc(SC)cc3)nn2)c(OC)c1OC (centres unmarked) [Example 2] ?
## Result ≤ 4.70

## Task What would you report for COc1ccc(C(=O)NCCn2cc(C(=O)NC(C#N)c3ccc(OC(C)C)cc3)nn2)c(OC)c1OC (centres unmarked) [Example 67] ?
## Result ≤ 4.70

## Task What would you report for CC1=C(C(=O)NCCn2cc(C(=O)NC(C#N)c3ccc(C(F)(F)F)cc3)nn2)Cc2ccccc21 (centres unmarked) [Example 70] ?
## Result ≤ 4.70

## Task What would you report for COc1ccc(C(C#N)NC(=O)c2cn(CCNC(=O)c3ccc(OC)c(OC)c3OC)nn2)cn1 (centres unmarked) [Example 65] ?
## Result 4.75

## Task What would you report for CCc1ccc(C(C#N)NC(=O)c2cn(CCNC(=O)c3ccc(C(F)(F)F)cc3OC)cn2)cc1 (centres unmarked) [Example 92] ?
## Result 4.74

## Task What would you report for CCc1ccc(C(C#N)NC(=O)c2cn(CCNC(=O)c3ccc(Cl)cc3F)nn2)cc1 (centres unmarked) [Example 31] ?
## Result ≤ 4.70

====

Target: β 5i (chymotrypsin-like activity) (Homo sapiens, UniProt P20618+P28062)
Construct: protease activity associated with the proteasome complex in cultured cells; endogenous in cells
Test: Cell-Based Proteasome subunit activity/selectivity assay, β5i, substrate (ANW)2Rh110
Settings: Ramos cells; substrate (ANW)2Rh110 (β5i); highest concentration tested 20 μM; read-out: Ic50:ramos:ac-(anw)2-r110
measurementKind: IC50 (nM)
Give the value, in units of nM, as a plain number.

Worked examples follow.
CCc1ccc(C(C#N)NC(=O)c2cn(CCNC(=O)c3cccc(-c4ccccc4)n3)nn2)cc1 (centres unmarked) | 1500
CCc1ccc(C(C#N)NC(=O)c2cn(CCNC(=O)c3cc(OC)ccc3F)nn2)cc1 (centres unmarked) | 682
CCc1ccc(C(C#N)NC(=O)c2cn(CCNC(=O)c3ccc(C(F)(F)F)cn3)nn2)cc1 (centres unmarked) | 1130
CCc1ccc(C(C#N)NC(=O)c2cn(CCNC(=O)c3ccc(C(F)(F)F)cc3F)cn2)cc1 (centres unmarked) | 1010

Alright, here's another compound for you.
## Task Missing value: IC50, β 5i (chymotrypsin-like activity) (Homo sapiens, UniProt P20618+P28062), entry COc1ccc(C(=O)NCCn2cc(C(=O)N[C@@H](CCc3ccccc3)C(=O)O)nn2)c(OC)c1OC . Fill in?
## Result 921

====

Biological target: β 5i (chymotrypsin-like activity) (Homo sapiens, UniProt P20618+P28062)
Construct: protease activity associated with the proteasome complex in cultured cells; endogenous in cells
Test: Cell-Based Proteasome subunit activity/selectivity assay, β5i, substrate (ANW)2Rh110
Conditions: Ramos cells; substrate (ANW)2Rh110 (β5i); highest concentration tested 20 μM; read-out: Ic50:ramos:ac-(anw)2-r110
pIC50: −log10 of the molar value.
Mark Not satisfied for pIC50 values under 6, and Satisfied for everything at or above.

Below are worked cases with known answers.
CCc1ccc(C(C#N)NC(=O)c2cn(CCNC(=O)c3ccc(C(F)(F)F)cc3OC)nn2)cc1 (stereo not drawn) [Example 23] | Satisfied
COc1ccc(C(=O)NCCn2cc(C(=O)NC(C#N)c3ccc(Br)cc3)nn2)c(OC)c1OC (stereo not drawn) [Example 54] | Satisfied

## Task Quick check, pIC50 >= 6? CC1=C(C(=O)NCCn2cc(C(=O)NC(C#N)c3ccc(C(F)(F)F)cc3)nn2)Cc2ccccc21 (stereo not drawn) [Example 70]
## Result Satisfied

## Task What would you report for CCc1ccc(C(C#N)NC(=O)c2cn(CCNC(=O)c3ccc(C)nc3OC)nn2)cc1 (stereo not drawn) [Example 34] ?
## Result Satisfied

## Task What would you report for CCc1ccc(C(C#N)NC(=O)c2cn(CCNC(=O)C3=C(C)c4ccccc4C3)nn2)cc1 (stereo not drawn) [Example 25] ?
## Result Satisfied

## Task What would you report for COc1ccc(C(=O)NCCn2cc(C(=O)NCc3ccc(C)c(C)c3)nn2)c(OC)c1OC [Example 4] ?
## Result Not satisfied

## Task What would you report for CCc1ccc(C(C#N)NC(=O)c2cn(CCN3Cc4ccccc4C3=O)nn2)cc1 (stereo not drawn) [Example 46] ?
## Result Not satisfied

## Task What would you report for CCc1ccc(C(C#N)NC(=O)c2cn(CCNC(=O)c3ccc(SC)cc3OC)nn2)cc1 (stereo not drawn) [Example 19] ?
## Result Satisfied

## Task What would you report for CCc1ccc(C(C#N)NC(=O)c2cn(CCNC(=O)c3ccc(OC)nn3)nn2)cc1 (stereo not drawn) [Example 40] ?
## Result Not satisfied

## Task What would you report for CCc1ccc(C(C#N)NC(=O)c2cn(CCNC(=O)c3cc(Cl)ccc3Cl)nn2)cc1 (stereo not drawn) [Example 14] ?
## Result Satisfied

## Task What would you report for CCc1ccc(C(C#N)NC(=O)c2cn(CCNC(=O)c3ccc(C(F)(F)F)cc3F)nn2)cc1 (stereo not drawn) [Example 38] ?
## Result Satisfied

## Task What would you report for CCc1ccc(C(C#N)NC(=O)c2cn(CCNC(=O)c3ccc(S(C)(=O)=O)cc3Cl)nn2)cc1 (stereo not drawn) [Example 41] ?
## Result Satisfied
